Tested Target: T1, human CTLA4 expressed on CHO cells (human, UniProt P16410 36-223)
T1 construct: whole, on cells; Target on CHO cells stably expressing CTLA4; also called huCTLA4
T1 sequence (P16410 36-223): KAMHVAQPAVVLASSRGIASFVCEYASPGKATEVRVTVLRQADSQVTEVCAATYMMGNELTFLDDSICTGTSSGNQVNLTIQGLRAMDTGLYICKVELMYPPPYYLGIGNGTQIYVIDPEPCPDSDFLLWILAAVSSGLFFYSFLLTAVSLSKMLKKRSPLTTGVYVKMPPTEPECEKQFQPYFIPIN
Assay Notes: flow cytometry, CHO cells stably expressing CTLA4, Fc fusion at 33.3 nM
Quantity Measured: MFI at 33.3 nM (MFI)
Report only the number, with the unit MFI understood.

Solved entries:
{"columns": ["Binder", "Quantity Measured", "Measured Result"],
 "data": [
  ["CD80 E35D/M47V/K89N IgV-Fc (Fc fusion, not shown: small tags and cut ends; a dimerising Fc or GST) VIHVTKEVKEVATLSCGHNVSVEELAQTRIYWQKDKKMVLTMMSGDVNIWPEYKNRTIFDITNNLSIVILALRPSDEGTYECVVLKYENDAFKREHLAEVTLSVKAD", "MFI at 33.3 nM", 39300],
  ["CD80 M47V/N48K/V68M IgV-Fc (Fc fusion, not shown: small tags and cut ends; a dimerising Fc or GST) VIHVTKEVKEVATLSCGHNVSVEELAQTRIYWQKEKKMVLTMMSGDVKIWPEYKNRTIFDITNNLSIMILALRPSDEGTYECVVLKYEKDAFKREHLAEVTLSVKAD", "MFI at 33.3 nM", 34600],
  ["CD80 M47V/V68M/K89N IgV-Fc (Fc fusion, not shown: small tags and cut ends; a dimerising Fc or GST) VIHVTKEVKEVATLSCGHNVSVEELAQTRIYWQKEKKMVLTMMSGDVNIWPEYKNRTIFDITNNLSIMILALRPSDEGTYECVVLKYENDAFKREHLAEVTLSVKAD", "MFI at 33.3 nM", 24800]
]}

Please examine the following record next.
Req: Request the reported MFI at 33.3 nM associated with CD80 N48K/V68M/K89N IgV-Fc (Fc fusion, not shown: small tags and cut ends; a dimerising Fc or GST) VIHVTKEVKEVATLSCGHNVSVEELAQTRIYWQKEKKMVLTMMSGDMKIWPEYKNRTIFDITNNLSIMILALRPSDEGTYECVVLKYENDAFKREHLAEVTLSVKAD
Resp: 19100
